# Tested on: PLK1 protein
# test: Western blot analysis of PLK1 protein after ASO treatment
# Format: cell-based, human
# test.parameters: discussion; read-out: IC50, PLK1 mRNA and protein expression in cell culture
quantity.measured: IC50
Field: value (include unit after the number)

Exercise: For accagtccggaggggagggc (ACCAGTCCGGAGGGGAGGGC; chemistry not given here) [ASO P12] , write its IC50.
Solution: 50 nM

Exercise: For gggccccagatgcaggtggg (GGGCCCCAGATGCAGGTGGG; chemistry not given here) [ASO P13] , write its IC50.
Solution: 50 nM

Where these numbers come from: patent US20050107316A1
